target: Tyrosine-protein kinase BTK (Homo sapiens, UniProt Q06187); test: Inhibition of BTK in goat anti-human IgM antibody stimulated human Ramos cells assessed as BTK autophosphorylation at […] residue preincubated for 1 hr followed by antibody stimulation by Western blot analysis; assay type: cell-based
Sequence (Q06187 whole entry, the tested form may be a part): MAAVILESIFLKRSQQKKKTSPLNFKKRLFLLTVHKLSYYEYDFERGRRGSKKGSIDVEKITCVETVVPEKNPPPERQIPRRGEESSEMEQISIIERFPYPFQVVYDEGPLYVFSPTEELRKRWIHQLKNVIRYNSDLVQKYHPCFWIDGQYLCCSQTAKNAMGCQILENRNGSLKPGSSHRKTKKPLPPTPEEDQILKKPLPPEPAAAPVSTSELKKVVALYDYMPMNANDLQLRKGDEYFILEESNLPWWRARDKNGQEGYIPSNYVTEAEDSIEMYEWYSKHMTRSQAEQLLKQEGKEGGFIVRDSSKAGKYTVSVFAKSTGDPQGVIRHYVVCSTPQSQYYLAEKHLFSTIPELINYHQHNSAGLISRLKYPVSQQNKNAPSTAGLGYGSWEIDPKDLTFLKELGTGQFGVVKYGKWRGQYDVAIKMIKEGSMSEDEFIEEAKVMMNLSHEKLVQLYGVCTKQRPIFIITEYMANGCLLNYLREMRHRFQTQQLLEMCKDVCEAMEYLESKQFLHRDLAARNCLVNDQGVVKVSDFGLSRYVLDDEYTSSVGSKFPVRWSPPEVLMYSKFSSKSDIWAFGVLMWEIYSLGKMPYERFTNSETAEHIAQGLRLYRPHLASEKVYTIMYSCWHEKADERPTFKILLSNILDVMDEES
pEC50: −log10 of the molar value.
Quantity measured: pEC50

> print(dat)
                                 smiles.str                       experimental.system  quantity.measured  result
1  Cc1ccc(NC(=O)c2ccc3cnccc3c2)cc1C(=O)Nc1cnc(Nc2cccc(NC3CCN(C(=O)/C=C/CN(C)C)CC3)c2)nc1  Tyrosine-protein kinase BTK (Homo sapiens, UniProt Q06187)              pEC50  < 6.00

----------
target: Tyrosine-protein kinase BTK (Homo sapiens, UniProt Q06187); assay: Inhibition of wild type N-terminal GST tagged BTK (unknown origin) (2 to 659 residues) expressed in sf21 insect cell using TK as substrate incubated for 50 mins in presence of ATP by HTRF assay
pIC50: −log10 of the molar value.
Quantity measured: pIC50

> print(dat)
                                 smiles.str  quantitative.result
1  Cc1ccc(NC(=O)c2cccc(-c3ccco3)c2)cc1C(=O)Nc1cnc(Nc2cccc(N)c2)nc1                 6.44
2  Cc1ccc(NC(=O)c2cccc(-c3cccnc3)c2)cc1C(=O)Nc1cnc(Nc2cccc(N)c2)nc1                 6.64
3  Cc1ccc(NC(=O)c2cccc(-c3ccc(F)cc3)c2)cc1C(=O)Nc1cnc(Nc2cccc(N)c2)nc1                 6.16
4  C=CC(=O)N1CCC(Nc2cccc(Nc3ncc(NC(=O)c4cc(NC(=O)c5ccc6cnccc6c5)ccc4C)cn3)c2)CC1                 7.24

----------
biological target: Tyrosine-protein kinase BTK (Homo sapiens); assay: Inhibition of BTK in goat anti-human IgM antibody stimulated human Ramos cells assessed as PLCgamma2 phosphorylation preincubated for 1 hr followed by antibody stimulation by Western blot analysis; format: cell-based
Quantity measured: EC50

> print(dat)
                                 smiles.str  result
1  Cc1ccc(NC(=O)c2ccc3cnccc3c2)cc1C(=O)Nc1cnc(Nc2cccc(NC3CCN(C(=O)/C=C/CN(C)C)CC3)c2)nc1  > 1 µM

----------
biological target: UniProtKB P51451; assay: Inhibition of wild type N-terminal GST tagged BLK (unknown origin) (1 to 505 residues) expressed in sf21 insect cell using TK as substrate incubated for 50 mins in presence of ATP by HTRF assay
Sequence (P51451 whole entry, the tested form may be a part): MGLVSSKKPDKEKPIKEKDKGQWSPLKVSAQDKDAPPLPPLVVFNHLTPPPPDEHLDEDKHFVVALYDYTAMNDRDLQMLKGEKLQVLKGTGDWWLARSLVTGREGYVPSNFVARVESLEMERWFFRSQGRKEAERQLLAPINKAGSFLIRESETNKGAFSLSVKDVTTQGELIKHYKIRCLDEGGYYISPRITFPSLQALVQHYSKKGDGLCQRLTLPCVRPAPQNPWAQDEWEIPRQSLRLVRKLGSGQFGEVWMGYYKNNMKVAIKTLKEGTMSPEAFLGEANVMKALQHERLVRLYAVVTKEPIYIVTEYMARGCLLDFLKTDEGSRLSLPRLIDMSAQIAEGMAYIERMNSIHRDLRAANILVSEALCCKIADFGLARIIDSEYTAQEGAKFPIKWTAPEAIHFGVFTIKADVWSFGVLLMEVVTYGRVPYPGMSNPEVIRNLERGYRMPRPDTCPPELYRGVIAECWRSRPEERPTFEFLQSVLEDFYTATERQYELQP
pIC50: −log10 of the molar value.
Form field: pIC50 (one value per entry).
Quantity measured: pIC50

> print(dat)
                                 smiles.str  experimental.system  quantity.measured  quantitative.result
1  C=CC(=O)N1CCC(Nc2cccc(Nc3ncc(NC(=O)c4cc(NC(=O)c5ccc6cnccc6c5)ccc4C)cn3)c2)CC1     UniProtKB P51451              pIC50                 8.06
2  C=CC(=O)Nc1cccc(Nc2ncc(NC(=O)c3cc(NC(=O)c4cccc(C(F)(F)F)c4)ccc3C)cn2)c1     UniProtKB P51451              pIC50                 7.73
3  Cc1ccc(NC(=O)c2ccc3cnccc3c2)cc1C(=O)Nc1cnc(Nc2cccc(NC3CCN(C(=O)/C=C/CN(C)C)CC3)c2)nc1     UniProtKB P51451              pIC50                 8.23
